Assay: Vasoconstriction effect in Wistar rat caudal artery
Assay type: functional, tissue-based
# EC50 listing for each entry below
// return numeric value only (unit: µM, not printed)

Below, 3 molecules whose answers are already recorded.
GET /value?item= O=C1NC(=O)C2C3C(C(O)(c4ccccc4)c4ccccn4)=CC(/C3=C(/c3ccccc3)c3ccccn3)C12 (centres undefined) &field=EC50 returns 1

GET /value?item= "C=C(c1ccccc1)c1ccccn1" &field=EC50 returns 11

GET /value?item= O=C1NC(=O)[C@H]2C3C(C(O)(c4ccccc4)c4ccccn4)=CC(C3=C(c3ccccc3)c3ccccc3)[C@@H]12 (some centres undefined) &field=EC50 returns 4.2

Now look at this entry.
GET /value?item= O=C1NC(=O)C2C3C=CC(C3=C(c3ccccc3)c3ccccn3)C12 (centres undefined) &field=EC50 returns 7.8

---

Test system: Rattus norvegicus
Assay: Toxicity in Wistar rat assessed as death at 20 mg/kg, ip after 1 hr; call rule not given here
Type: functional, organism-based
Set-up: dose 20 mg/kg
Choose the fitting class; nothing outside true (1) for active, false (0) for inactive is accepted.

Check out these entries, answers already filled in.
Exam item: Which outcome was assigned to OC(C1=CC2CCC1/C2=C(\c1ccccc1)c1ccccn1)(c1ccccc1)c1ccccn1 (mixture of isomers) in this test?
Marked response: false (0)

Exam item: Which outcome was assigned to O=C1NC(=O)C2C3C(C(O)(c4ccccc4)c4ccccn4)=CC(/C3=C(/c3ccccc3)c3ccccn3)C12 (stereo not given) in this test?
Marked response: true (1)

Further cases:
Exam item: Which outcome was assigned to O=C1NC(=O)C2C3C=CC(C3=C(c3ccccc3)c3ccccn3)C12 (stereo not given) in this test?
Marked response: false (0)

Exam item: Which outcome was assigned to OC(C1=CC2CCC1C2)(c1ccccc1)c1ccccn1 (mixture of isomers) in this test?
Marked response: false (0)

Exam item: Which outcome was assigned to "C=C(c1ccccc1)c1ccccn1" in this test?
Marked response: false (0)
